# Test system: HBL-100
# PROCEDURE DETAILS: Photodynamic cytotoxicity against human HBL-100 cells assessed as cell growth inhibition incubated for 24 hrs followed by medium replacement without compound upon 1 J/cm2 light irradiation and measured after 24 hrs by MTT assay
# Format: functional, cell-based
pIC50: −log10 of the molar value.
METRIC: pIC50

Task item: Value lookup for pIC50; key = `C[n+]1ccc(-c2c3nc(c(-c4cc[n+](C)cc4)c4ccc([nH]4)c(-c4cc[n+](C)cc4)c4nc(c(-c5ccc(C(=O)NCCOCCOCCNC(=O)CN6CCNCCNCC6)cc5)c5ccc2[nH]5)C=C4)C=C3)cc1`
Reply: < 4.00

====

# Test system: HeLa
# PROCEDURE DETAILS: Cytotoxicity against human HeLa cells assessed as cell growth inhibition incubated for 24 hrs by MTT assay
# Type: functional, cell-based
METRIC: IC50

Task item: Value lookup for IC50; key = `C[n+]1ccc(-c2c3nc(c(-c4cc[n+](C)cc4)c4ccc([nH]4)c(-c4cc[n+](C)cc4)c4nc(c(-c5ccc(C(=O)NCCOCCOCCNC(=O)CN6CCNCCNCC6)cc5)c5ccc2[nH]5)C=C4)C=C3)cc1`
Reply: > 100 µM

====

# Tested on: UMUC3
# PROCEDURE DETAILS: Photodynamic cytotoxicity against human UMUC3 cells assessed as cell growth inhibition upon light irradiation
# Format: functional, cell-based
# MEASUREMENT CONTEXT: UMUC3, light or radiation study
METRIC: pIC50
# pIC50 = -log10(concentration in molar units)

Task item: Value lookup for pIC50; key = CCCCCCOC(C)C1=C(C)c2cc3nc(c4c5[nH]c(cc6[nH]c(cc1n2)c(C)c6CC)c(C)c5C(=O)C4)[C@@H](CCC(=O)O)[C@@H]3C (stereo partly specified)
Reply: 7.17
